- experiment_summary: Intrinsic clearance in rat microsomes measured per mg of protein
- Format: ADME, Microsome
quantity: microsomal CLint (µL/min/mg)
Form entry: value (µL/min/mg) — number only.

Example entries begin here.
Clc1cccc(-c2cc3n(n2)CCCC3)c1 :: 384
c1ccc(-c2cc3n(n2)CCCC3)nc1 :: 118
N#Cc1ccc(CC(=O)c2nn3c(c2Cl)CCCC3)nc1 :: 649
N#Cc1ccc(COc2cc3n(n2)CCCC3)nc1 :: 42

Now turn to the next compound.
Challenge: Entry "N#Cc1ccc(CC(=O)c2cc3n(n2)CCCC3)nc1" has what microsomal CLint?
Response given: 108

* * *

- assay_target: Metabotropic glutamate receptor 5 (Rattus norvegicus, UniProt P31424)
- Sequence (P31424 whole entry): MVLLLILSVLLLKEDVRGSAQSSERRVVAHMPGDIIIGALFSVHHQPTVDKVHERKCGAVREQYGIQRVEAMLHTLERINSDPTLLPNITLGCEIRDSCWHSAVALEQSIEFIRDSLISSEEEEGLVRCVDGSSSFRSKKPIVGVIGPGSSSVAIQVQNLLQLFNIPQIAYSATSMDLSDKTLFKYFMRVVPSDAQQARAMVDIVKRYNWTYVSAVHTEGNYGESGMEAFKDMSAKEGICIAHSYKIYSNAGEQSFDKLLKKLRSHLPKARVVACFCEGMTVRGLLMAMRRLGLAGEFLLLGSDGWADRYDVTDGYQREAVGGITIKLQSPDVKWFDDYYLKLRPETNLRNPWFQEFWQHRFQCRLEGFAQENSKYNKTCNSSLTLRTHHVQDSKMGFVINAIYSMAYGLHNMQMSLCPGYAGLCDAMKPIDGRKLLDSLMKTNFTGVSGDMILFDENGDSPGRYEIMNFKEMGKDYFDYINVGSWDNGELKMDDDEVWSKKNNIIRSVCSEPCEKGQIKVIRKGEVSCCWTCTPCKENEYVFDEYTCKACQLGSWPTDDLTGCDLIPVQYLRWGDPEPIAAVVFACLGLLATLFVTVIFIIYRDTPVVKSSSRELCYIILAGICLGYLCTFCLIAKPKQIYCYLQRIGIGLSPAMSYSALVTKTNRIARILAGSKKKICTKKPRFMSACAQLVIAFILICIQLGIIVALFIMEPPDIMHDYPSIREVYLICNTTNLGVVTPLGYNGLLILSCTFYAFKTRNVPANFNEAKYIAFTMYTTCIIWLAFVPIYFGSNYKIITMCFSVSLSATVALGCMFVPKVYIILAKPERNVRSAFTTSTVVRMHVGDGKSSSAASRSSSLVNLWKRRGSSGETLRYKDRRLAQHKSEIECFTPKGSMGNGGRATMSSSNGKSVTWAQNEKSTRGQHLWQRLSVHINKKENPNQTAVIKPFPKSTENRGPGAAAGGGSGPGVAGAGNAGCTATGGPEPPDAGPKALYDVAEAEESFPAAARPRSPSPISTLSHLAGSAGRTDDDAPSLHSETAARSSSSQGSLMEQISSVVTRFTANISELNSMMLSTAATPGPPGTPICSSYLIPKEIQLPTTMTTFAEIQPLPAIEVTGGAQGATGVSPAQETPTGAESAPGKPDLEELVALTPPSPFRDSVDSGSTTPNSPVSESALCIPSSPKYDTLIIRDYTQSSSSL
- experiment_summary: Negative allosteric modulation of rat mGluR5 receptor expressed in HEK293 cells assessed as intracellular calcium flux after 170 seconds by FLIPR assay
- Assay type: functional, cell-based
- condition_label: read-out: IC50
pIC50: −log10 of the molar value.
Cut-off 7 on pIC50, inclusive. At or above means 1; below means -1.

Here are 3 compounds together with their reported answers.
Clc1ccnc(COc2cc3n(n2)CCCC3)c1 :: -1
N#Cc1ccc(CC(=O)c2nn3c(c2C#N)CCCC3)nc1 :: -1
c1ccc(-c2cc3n(n2)CCCC3)cc1 :: -1

Challenge: Assess whether reported pIC50 for "N#Cc1ccc(COc2cc3n(n2)CCCC3)cc1" sits at 7 or higher.
Response given: -1

Challenge: Assess whether reported pIC50 for "O=C(Nc1ccc(F)cn1)c1cc2n(n1)CCCC2" sits at 7 or higher.
Response given: 1

Challenge: Assess whether reported pIC50 for "Fc1cccc(-c2cc3n(n2)CCCC3)c1" sits at 7 or higher.
Response given: -1

Challenge: Assess whether reported pIC50 for "N#Cc1ccc(-c2cc3n(n2)CCCC3)nc1" sits at 7 or higher.
Response given: -1

Challenge: Assess whether reported pIC50 for "Cc1cccc(-c2cc3n(n2)CCCC3)n1" sits at 7 or higher.
Response given: -1

Challenge: Assess whether reported pIC50 for "N#Cc1ccc(CC(=O)c2cc3n(n2)CCCC3)nc1" sits at 7 or higher.
Response given: 1
